These entries and their values trace back to the supplement of paper PMC9233669.

Test system: biotinyl-Val-oxazolone
Assay: self-aminoacylation, catalytic enhancement (BVO) (fold over background); higher = more active; k-Seq, kA / k0A0; sequences stand for … in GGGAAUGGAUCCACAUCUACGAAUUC…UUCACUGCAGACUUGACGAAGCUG
Variants at the floor of the assay were thinned out.
I'd be grateful if you could share measured self-aminoacylation for these entries.
Answer as a number with no unit attached.

Query :: Quick one: self-aminoacylation of AUUUCCCUGGUCAUUGAGUGA [Fam2.1 aminoacylation ribozyme variant] ?
Result :: 4.4

Query :: How about this sequence: ACUACCCUGGUCAUGGAGUGA [Fam2.1 aminoacylation ribozyme variant]
Result :: 2.59

Query :: Try this sequence next: CCAGACUUCAAGCCAUCGGUC [Fam1B.1 aminoacylation ribozyme variant]
Result :: 1.46

Query :: Can you check AGUCAACUAGGUCAUCGGGUG [Fam2.2 aminoacylation ribozyme variant] next?
Result :: 4.95

Query :: Do the same for UCACACUUCAAGAAAUCGGUC [Fam1B.1 aminoacylation ribozyme variant] please
Result :: 0.888

Query :: Moving on to the next sequence: CUACUUCAAACAAUCAGUCUU [Fam1A.1 aminoacylation ribozyme variant]
Result :: 0.942

Query :: Record: CUACUUCAAAUAAUUGGUCUG [Fam1A.1 aminoacylation ribozyme variant]
Result :: 0.802

Query :: Same question, AAGUUUGGUAAUAGUCCCAAG [Fam3.1 aminoacylation ribozyme variant] this time
Result :: 0.864

---

System: biotinyl-Trp-oxazolone
Test: self-aminoacylation, catalytic enhancement (BWO) (fold over background); higher = more active; k-Seq, kA / k0A0; sequences stand for … in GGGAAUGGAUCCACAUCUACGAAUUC…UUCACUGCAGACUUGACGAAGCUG
Fewer inactive variants are shown than the library holds.
measured parameter: self-aminoacylation
Lab note: jot down the number only; don't add units.

Query :: Fill in: self-aminoacylation of AAUACCCCGGUCAUCGAGUGA [Fam2.1 aminoacylation ribozyme variant] is ___
Result :: 5.61

Query :: Similarly, CUACUUCAAACAAUCGUUCAG [Fam1A.1 aminoacylation ribozyme variant] ?
Result :: 0.523

Query :: Moving on to the next sequence: CCACACUUCAAGCAAUCGGCG [Fam1B.1 aminoacylation ribozyme variant]
Result :: 2.05

Query :: Again, but for AAGUUUGCUCAUAGUCUCAAG [Fam3.1 aminoacylation ribozyme variant]
Result :: 0.98

Query :: Can you handle CCACACUUCAAGCAUUCGCUC [Fam1B.1 aminoacylation ribozyme variant] next?
Result :: 2.64

Query :: // query: AUUACCCUGGUCAUCGAGGCA [Fam2.1 aminoacylation ribozyme variant]
Result :: 0.847

Query :: Again, but for CUAAUUCAAACAAUCGGUGUG [Fam1A.1 aminoacylation ribozyme variant]
Result :: 0.691

Query :: # iterate: CCAUACUUAAAGCAAUCGGUC [Fam1B.1 aminoacylation ribozyme variant]
Result :: 0.674

Query :: Entry CCUUACUUCAAGCAAUCGGUC [Fam1B.1 aminoacylation ribozyme variant] please
Result :: 13

Query :: Try this sequence too: CCACACUUCAAGCACUCGAUC [Fam1B.1 aminoacylation ribozyme variant]
Result :: 0.436

Query :: Query AUGACCCUCGUCAUCGAGUGA [Fam2.1 aminoacylation ribozyme variant] next
Result :: 3.73

Query :: Can you handle AUUACCCUGCUCAUCGCGUGA [Fam2.1 aminoacylation ribozyme variant] next?
Result :: 16.9

Query :: Next sequence: CUACACUUCAAGCAAUCGGUC [Fam1B.1 aminoacylation ribozyme variant]
Result :: 22.8

Query :: Same again, this time with CUACUUCUAACAAUCGGCCUG [Fam1A.1 aminoacylation ribozyme variant]
Result :: 1.05

Query :: Thanks! And UUUACCCUGGUCAUCGGGUGA [Fam2.1 aminoacylation ribozyme variant] ?
Result :: 40.3

Query :: Thanks! And AUUACCCUCGACAUCGAGUGA [Fam2.1 aminoacylation ribozyme variant] ?
Result :: 14.5

Query :: AAGUAUGCUAAUAGUAGCAAG [Fam3.1 aminoacylation ribozyme variant] , same question.
Result :: 0.882

Query :: Please answer likewise for CAACUUCAAACAAUCGGUCAG [Fam1A.1 aminoacylation ribozyme variant]
Result :: 11.9

Query :: Please do the same for AGUCCCCUAGGUCAUCGGGUG [Fam2.2 aminoacylation ribozyme variant] as well.
Result :: 11.4

Query :: Same for AAGUUUGCUAAUAGUCGUGAG [Fam3.1 aminoacylation ribozyme variant]
Result :: 2.15

Query :: And for CUACUUCAAACGAUCGAUCUG [Fam1A.1 aminoacylation ribozyme variant] ?
Result :: 0.354

Query :: Then what about the sequence ACUCACCUAGGUCAUCUGGUG [Fam2.2 aminoacylation ribozyme variant] ?
Result :: 2.35

Query :: How about this sequence: CCACACUUCAAGCCAUCGGUG [Fam1B.1 aminoacylation ribozyme variant]
Result :: 4.89

Query :: Now the same for CCACCCUUCAAGCAAUCGGUC [Fam1B.1 aminoacylation ribozyme variant]
Result :: 11.3

Query :: Same for AUCACCCUGGCCAUCGAGUGA [Fam2.1 aminoacylation ribozyme variant]
Result :: 7.58

Query :: Request: CUACUUCAAACAAUCUCUCUG [Fam1A.1 aminoacylation ribozyme variant]
Result :: 4.21

Query :: Now consider AUUACCCUGGGCAUCCAGUGA [Fam2.1 aminoacylation ribozyme variant] and answer again.
Result :: 7.23

Query :: Follow-up entry: AUUACCCUGGUCAUCUAGUGC [Fam2.1 aminoacylation ribozyme variant]
Result :: 0.68

Query :: Moving on to CUACUUAAAACAAUCGGUCGG [Fam1A.1 aminoacylation ribozyme variant]
Result :: 0.59

Query :: Also, UAGUUUGCUAAUAGUCGGAAG [Fam3.1 aminoacylation ribozyme variant] please.
Result :: 2.37

Query :: Proceed to AUUAGCCUGGUCAUCGAGCGA [Fam2.1 aminoacylation ribozyme variant]
Result :: 4.5

Query :: Another sequence: CUACUUCAAACACUCGGUGUG [Fam1A.1 aminoacylation ribozyme variant]
Result :: 1.63

Query :: Please do the same for AUUCAACUAGGUCAUCGGGUC [Fam2.2 aminoacylation ribozyme variant] as well.
Result :: 1.22

Query :: Next record, please: CCACACUGCAUGCAAUCGGUC [Fam1B.1 aminoacylation ribozyme variant]
Result :: 0.659

Query :: And AUUACCCUGGUCCCCGAGUGA [Fam2.1 aminoacylation ribozyme variant] ?
Result :: 17.3

---

I'd be grateful if you could share measured self-aminoacylation for these entries.
System: biotinyl-Leu-oxazolone
Assay: self-aminoacylation, catalytic enhancement (BLO) (fold over background); higher = more active; k-Seq, kA / k0A0; sequences stand for … in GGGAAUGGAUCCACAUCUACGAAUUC…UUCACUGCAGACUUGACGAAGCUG
This sample holds only a part of the variants without activity.

Query :: What reported self-aminoacylation corresponds to CUACUUCACACAAUCGGUCUG [Fam1A.1 aminoacylation ribozyme variant] on biotinyl-Leu-oxazolone?
Result :: 0.694

Query :: Same again, this time with AUUCACGUAGGUCAUAGGGUG [Fam2.2 aminoacylation ribozyme variant]
Result :: 2.36

Query :: Input CUACUUGAAACAACCGGUCUG [Fam1A.1 aminoacylation ribozyme variant]
Result :: 0.805

Query :: Same thing, different sequence: AGGUUUGCUAAUAGUCGAAAG [Fam3.1 aminoacylation ribozyme variant]
Result :: 0.991

---

Test system: biotinyl-Trp-oxazolone
Test: self-aminoacylation, catalytic enhancement (BWO) (fold over background); higher = more active; k-Seq, kA / k0A0; sequences stand for … in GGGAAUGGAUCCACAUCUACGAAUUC…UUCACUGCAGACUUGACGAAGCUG
Fewer inactive variants are shown than the library holds.
I'd be grateful if you could share measured self-aminoacylation for these entries.

Query :: Please look up its self-aminoacylation: AAGUGUGCUAAUAGUCGCAAG [Fam3.1 aminoacylation ribozyme variant]
Result :: 6.71

Query :: Would you mind doing AUUACCCUGGCCAUCGAGAGA [Fam2.1 aminoacylation ribozyme variant] as well?
Result :: 0.803

Query :: Query CUCCUUCAAACAAUCCGUCUG [Fam1A.1 aminoacylation ribozyme variant] next
Result :: 1.25

Query :: Please do the same for AAGUUUUCUAAUAGUCGCGAG [Fam3.1 aminoacylation ribozyme variant] as well.
Result :: 2.99

Query :: What would you report for CUACUUCAGACAAUCGUUCUG [Fam1A.1 aminoacylation ribozyme variant] ?
Result :: 0.342

Query :: Also check CCACACUUCAAGCAAGCUGUC [Fam1B.1 aminoacylation ribozyme variant]
Result :: 0.346

Query :: Another: AAGUUUGCUUAUAGUGGCAAG [Fam3.1 aminoacylation ribozyme variant]
Result :: 0.94

Query :: Note, next up: CAACUUCAAACAAUCGGUAUG [Fam1A.1 aminoacylation ribozyme variant]
Result :: 21
